tested on: OVCAR-8 ovarian; assay: NCI-60 one-dose screen, 48 h; conditions: 10 µM unless noted
About 83,000 compounds went through this panel and 20% of them were active in at least one assay; those are over-represented in the sample as a whole. The source made the active and inactive calls. The calls were made as follows: active = growth percent below 10; inactive = the rest.
Choose the fitting class; nothing outside active, inactive is accepted.

Assay result, entry Cc1cc(Nc2ccc(OCc3ccccc3)cc2)nc2cc(O)ccc12 — outcome?
inactive

Assay result, entry O=S(=O)(c1ccc(NC(=S)NC23CC4CC(CC(C4)C2)C3)cc1)N1CCCCC1 — outcome?
inactive

Assay result, entry COC(=O)/C(=C\c1c(-c2ccccc2)[nH]c2ccccc12)S(C)(=O)=O — outcome?
inactive

Assay result, entry COc1ccc2[nH]c(O)c(N=NC(=O)c3oc4ccccc4c3C)c2c1 — outcome?
inactive

Assay result, entry CCCCc1c(CCC)c(=N)c2ccccc2n1C — outcome?
inactive

Assay result, entry O=S(=O)(c1ccccc1)n1cc2c(c1-c1ccccc1)CCc1sc(Nc3ccccc3)nc1-2 — outcome?
inactive

Assay result, entry COc1cc(/C=C2\CN(C)C/C(=C\c3cc(CN4CCOCC4)c(O)c(OC)c3)C2=O)cc(CN2CCOCC2)c1O — outcome?
inactive

Assay result, entry Clc1ccc(-c2nnc(COc3ccc(C4=NNC(c5ccco5)C4)cc3)o2)cc1 (stereo not given) — outcome?
inactive

Assay result, entry O=C(NC(=S)Nc1cccc(NC(=S)NC(=O)c2ccccc2)c1)c1ccccc1 — outcome?
inactive

Assay result, entry O=c1c2cc(F)ccc2sc2c(NCCN3CCCC3)nc3ccccc3c12 — outcome?
inactive

Assay result, entry Cc1ccc(C)c(-c2csc(Nc3ccc(C)c(C)c3)n2)c1 — outcome?
inactive

Assay result, entry O=C1CCC(N2C(=O)c3cccc(NCCCCCCOc4ccc(Nc5nccc(Nc6ccccc6)n5)cc4)c3C2=O)C(=O)N1 (stereo not given) — outcome?
inactive

Assay result, entry COc1nc2c(c(=O)n1C)N=C1c3ccccc3C(=O)C1C(c1ccccc1)N2 (stereo not given) — outcome?
inactive

Assay result, entry CN1C(=O)N(C)C2(c3ccccc3)n3c(s/c(=C\c4ccccc4)c3=O)=NNC12c1ccccc1 (stereo not given) — outcome?
inactive

Assay result, entry O=c1oc2ccc(Br)cc2c(=O)n1-c1ccc(Cl)cc1F — outcome?
active

Assay result, entry O=C(c1nc2ccccc2[nH]1)C1[C@@H](c2cccc(O)c2)C2CC3CCCCC3N2[C@@]12C(=O)Nc1cc(Cl)ccc12 (stereo not given in full) — outcome?
inactive

Assay result, entry Fc1cccc(COc2ccc(Nc3ncnc4onc(-c5ccccc5)c34)cc2)c1 — outcome?
inactive

Assay result, entry NC1C(N)C(N)C1N (stereo not given) — outcome?
inactive

Assay result, entry Cc1c(C(=O)OCCO)cc(-c2ccc(Cl)cc2)n1-c1ccc(Cl)cc1Cl — outcome?
inactive

Assay result, entry C#CCn1cc(C=C2C(=O)N(C)C(=O)N(C)C2=O)c2cc(Cl)ccc21 — outcome?
inactive

====

system: HOP-62 NSCLC; assay: NCI-60 one-dose screen, 48 h (100 = growth as untreated, 0 = no growth, -100 = all killed); conditions: 10 µM unless noted
This is part of a sample that, as a whole, favours compounds with a hit. Of some 83,000 tested, about 20% had one in any assay.
Exercise: state measured growth for each of the compounds provided.
A number alone suffices; assume %.

growth reading for CCOC(=O)c1cnc2ccc(Cl)cc2c1NCCCN(C)C : 8.63

growth reading for Cc1sc2ncnc(Sc3nc4ccccc4[nH]3)c2c1C : -62.6

growth reading for COC(=O)/C(CCC=C(C)C)=C1\[C@@H](OC(C)=O)C[C@@]2(C)[C@H]1C[C@@H](O)[C@H]1[C@@]3(C)CC[C@H](NCCO)[C@@H](C)[C@@H]3CC[C@@]12C : 106

growth reading for O=S(=O)(Nc1ncccn1)c1ccc(NC2Nc3nc4ccccc4nc3S2)cc1 (centres undefined) : 99.6

growth reading for COc1cc(NC(=O)CCSc2nc3ccccc3c(=O)n2Cc2ccccc2)cc(OC)c1OC : 92.8

growth reading for CCOC(=O)C1=CN(C)C=C(C(=O)OCC)C1c1cc(Br)c(OCC)c(OC)c1 : 55.6

growth reading for CC[C@H](C)[C@@H](C(=O)OC)n1cc(CNC(=O)[C@@H](Cc2ccccc2)NC(=O)OCc2ccccc2)nn1 : 103

growth reading for CCOc1cc(Cl)c(C(C)NC(=O)c2cccc(OC)c2)cc1OCC (centres undefined) : -11.2

growth reading for CCn1c(Cc2ccccc2Nc2c(Cl)cccc2Cl)nnc1SCC(=O)NN1C(=O)/C(=C/c2cccc(OC)c2OC)SC1=S : 98.6

====

tested on: OVCAR-8 ovarian; test: NCI-60 one-dose screen, 48 h; settings: 10 µM unless noted
This is part of a sample that, as a whole, favours compounds with a hit. Of some 83,000 tested, about 20% had one in any assay. Activity calls are given as the source filed them. How the source made its calls: active means growth percent below 10; inactive means the rest.
Choose the fitting class; nothing outside Yes = active, No = inactive is accepted.

Assay result, entry O=C1c2ccc3c4c(ccc(c24)C(=O)N1CCCCO)C(=O)N(CCCCO)C3=O — outcome?
No

Assay result, entry CCN1C(=O)N(CC)C2Nn3c(s/c(=C\c4ccccc4F)c3=O)=NC21 (stereo unspecified) — outcome?
No

Assay result, entry CCOC(=O)c1ccc2[nH]c(-c3ccccc3)cc(=O)c2c1 — outcome?
No

Assay result, entry CCOC(=O)c1cc2c(n1Cc1cc(OC)c(OC)c(OC)c1)-c1oncc1CCC2 — outcome?
No

Assay result, entry CCCCN1CCN(c2ccc3nc(-c4ccc5nc(-c6ccc(OCC)cc6)[nH]c5c4)[nH]c3c2)CC1 — outcome?
No

Assay result, entry Cc1ccc(OCCCCCCNCCO)c(C)c1 — outcome?
Yes

Assay result, entry O=C(CCc1nnc2sc(COc3ccccc3)nn12)c1nc2ncccc2[nH]1 — outcome?
No

Assay result, entry NC(CCc1nc2ccccc2c(=O)[nH]1)C(=O)O (stereo unspecified) — outcome?
No

Assay result, entry COc1ccc(C2NCCc3c2[nH]c2ccccc32)cc1CN1CCN(c2ccc(F)cc2)CC1 (stereo unspecified) — outcome?
No

Assay result, entry NS(=O)(=O)c1ccc(CCN=C=S)cc1 — outcome?
No

Assay result, entry COc1cc(C=C2C(=O)N(C)C(=O)N(C)C2=O)cc(CN2CCCCC2)c1O — outcome?
No

Assay result, entry COc1cc(/C=C/C(=O)N2c3ccccc3CC2C)c(OC)c2c1OCO2 (stereo unspecified) — outcome?
No

Assay result, entry CC(C)Cn1c2c(c(=S)[nH]c1=O)CCC2 — outcome?
No

Assay result, entry Nc1nonc1-n1nncc1-c1cccnc1 — outcome?
No

Assay result, entry COc1ccc(-c2nc(-c3ccccn3)c(-c3ccccn3)n2CC(C)C)cc1OC1CCCC1 — outcome?
No

Assay result, entry O=C(/C=C/c1ccccc1)c1ccc(Nc2nc(NCCO)nc(Nc3ccc(Cl)cc3)n2)cc1 — outcome?
No

Assay result, entry O=C(Nc1ccc(I)cc1F)c1cc(Br)ccc1O — outcome?
Yes

Assay result, entry CCOC(=O)C1(C(=O)OCC)N=C(c2ccccc2)C=C1c1ccccc1 — outcome?
No

Assay result, entry COC(=O)[C@H]1CCCN1C(=O)[C@H]1CCCN1C(=O)[C@H](Cc1c[nH]c2ccccc12)NC(=S)Nc1cc(C(F)(F)F)cc(C(F)(F)F)c1 — outcome?
No

Assay result, entry COC(=O)c1cc2c(n1Cc1ccccc1)-c1oncc1CCC2 — outcome?
No

Assay result, entry COc1cc(/C=C/C(=O)c2c(C)nc3ccccc3c2/C=C/c2ccccc2)cc(OC)c1OC — outcome?
No

====

tested on: A549/ATCC NSCLC; assay: NCI-60 one-dose screen, 48 h; conditions: 10 µM unless noted
The panel holds about 83,000 compounds, 20% with a hit somewhere; the sample as a whole holds those more often. Calls of active or inactive are those of the source. How the source made its calls: active means growth percent below 10; inactive means the rest.
Choose the fitting class; nothing outside active, inactive is accepted.

Assay result, entry Brc1ccc(Oc2ccc(Nc3ncnc4onc(-c5ccccc5)c34)cc2)cc1 — outcome?
inactive

Assay result, entry COc1cc2c(cc1OC)C(=O)C(CC1CCN(C(=O)Nc3ccc(C)cc3)CC1)C2 (stereo unspecified) — outcome?
inactive

Assay result, entry CCCN1C(=O)N(CCC)C2C1NN=c1s/c(=C3\C(=O)N(C(C)C)c4ccccc43)c(=O)n12 (stereo unspecified) — outcome?
inactive

Assay result, entry CN1C(=O)N(C)C2C1NN=c1s/c(=C\c3ccc(Cl)cc3Cl)c(=O)n12 (stereo unspecified) — outcome?
inactive

Assay result, entry O=C(Nc1ccc(-c2nc3ccc(NC(=O)c4ccc(Cl)cc4)cc3[nH]2)cc1)c1ccc(Cl)cc1 — outcome?
active

Assay result, entry Clc1ccc(Nc2nnc(-c3ccc4c(c3)OCO4)o2)cc1 — outcome?
inactive

Assay result, entry O=C(c1ccccc1)N(CCc1ccc(Cl)cc1)C(=S)N(C(=O)c1ccccc1)c1ccccc1 — outcome?
inactive

Assay result, entry COc1cc(/C=C/C(=O)c2ccc(Cl)cc2)cc(CN2CCCCC2)c1O — outcome?
inactive

Assay result, entry COc1ccc(C(=O)Nc2ccc3nc(N4CCCCC4)cc(C)c3c2)cc1OC — outcome?
inactive

Assay result, entry CCn1c(-c2nonc2Nc2ccc(OC)cc2)nc2ccccc21 — outcome?
inactive

Assay result, entry CCOc1cc2c(cc1OCC)C(c1cc(C)c(O)c(C)c1)NCC2 (stereo unspecified) — outcome?
inactive

Assay result, entry CCOc1cccc(/C=N/NC(=O)C(=O)Nc2cccc(C(F)(F)F)c2)c1O — outcome?
inactive

Assay result, entry CCn1c(Cc2ccccc2Nc2c(Cl)cccc2Cl)nnc1SCC(=O)NN1C(=O)/C(=C/c2cccc(OC)c2OC)SC1=S — outcome?
inactive

Assay result, entry O=C1C(=O)c2c(ccc3ccccc23)-c2ccccc21 — outcome?
inactive

Assay result, entry CCOc1c(Br)cc(C2C(C(=O)OC)=CN(C)C=C2C(=O)OC)cc1OC — outcome?
inactive

Assay result, entry CC(C)CCNCC(O)Cn1c2ccccc2c2ccccc21 (stereo unspecified) — outcome?
inactive

Assay result, entry CCOC(=O)c1sc(-c2ccc(OS(=O)(=O)c3ccccc3[N+](=O)[O-])c(C=O)c2)nc1C — outcome?
inactive

Assay result, entry CNCCNc1nc2ccccc2c2c(=O)c3cc(F)ccc3sc12 — outcome?
active

Assay result, entry O=C(NC(=S)Nc1cccc(NC(=S)NC(=O)c2ccccc2)c1)c1ccccc1 — outcome?
inactive

Assay result, entry CCOC(=O)c1ccc2[nH]c(-c3ccccc3)cc(=O)c2c1 — outcome?
inactive

Assay result, entry CSc1nc2c(c(=O)[nH]1)N=C1c3ccccc3C(=O)C1C(c1ccccc1)N2 (stereo unspecified) — outcome?
inactive

Reference source: PubChem BioAssay (NCI)
